Hello, the source for this data is PubChem BioAssay AID1963837, in case you need it.

# Tested on: 843126-344-R-J1-PDC complex spheroid viability;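 further: spheroids exposed to drugs for seven days before readout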
# ASSAY_OVERVIEW: Anticancer human tumor 843126-344-R-J1-PDC patient-derived melanoma cell line growth inhibition [POLQ]
# PROTOCOL_CONDITIONS: second compound 10 µM; first compound 1 µM; hits give low values
Note to self: use TRUE only for viability, T/C readings below 80%; a reading exactly at 80% still gets FALSE.

For orientation, consider the following solved cases.
>  <MOLECULE>
C=CC(=O)N1CCN(c2nc(=O)n(-c3c(C)ccnc3C(C)C)c3nc(-c4c(O)cccc4F)c(F)cc23)C(C)C1 (stereo not given) + Nc1ccc(C#CCN(C(=O)Cc2ncc(C(F)(F)F)cc2C(F)(F)F)c2ccc(F)cc2)nn1

>  <CLASS_LABEL>
FALSE

$$$$
>  <MOLECULE>
CCc1cc2c(N3CCc4c(cc(Cn5ccnc5)cc4-c4cn(C)nc4C(F)(F)F)C3=O)cc(C)nc2c(OC)n1 + Cc1cccc(N(C)C(=O)C2C(O)CCN2c2nc(C)cc(C(F)(F)F)c2C#N)c1

>  <CLASS_LABEL>
TRUE

$$$$
>  <MOLECULE>
COc1ccc([C@@H](O)c2cc(-c3ncnc4cc(N5CCOCC5)ccc34)c(F)cc2Cl)nn1 + Nc1ccc(C#CCN(C(=O)Cc2ncc(C(F)(F)F)cc2C(F)(F)F)c2ccc(F)cc2)nn1

>  <CLASS_LABEL>
FALSE

$$$$

For the next question, use this molecule.
I'd appreciate it if you could check whether CC1COCCN1c1cc(C2(S(C)(=N)=O)CC2)nc(-c2ccnc3[nH]ccc23)n1 (stereo not given) + COC1C(OC(N)=O)C(O)C(Oc2ccc3c(O)c(NC(=O)c4ccc(O)c(CC=C(C)C)c4)c(=O)oc3c2C)OC1(C)C has viability, T/C smaller than 80%.
FALSE
